// provenance: PubChem BioAssay AID1159580

# protocol.notes: chemical genetic growth profiling, strain panel (AID 1159580);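 also: tested at 20 µM; growth read once vehicle control cultures reached saturation at 30 °C; 1 = growth at the plate median or of vehicle wells; lower values mean less growth of the strain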
# conditions: S. cerevisiae deletion strains, growth OD, locus YLR133W, strain CKI1
The whole screen tested about 5,500 compounds, of which about 2,000 (36%) were called active. Another 18% or so got no clear call; they are omitted. Rule as the data show it: active = normalized growth mostly below about 0.91 (no sharp cut-off); inconclusive = no clear call, values can overlap the other calls; inactive = mostly above about 0.92. Some of the results follow.
Outcome codes: active, inactive

molecule | group.label
Cc1c(S(=O)(=O)Nc2cccc([N+](=O)[O-])c2)sc2ccc(Cl)cc12 | inactive
CC1=CC(=O)N(c2ccc(F)c(Cl)c2)C1=O | active
FC(F)(F)c1cc(NC(=S)SCCSC(=S)Nc2cc(C(F)(F)F)cc(C(F)(F)F)c2)cc(C(F)(F)F)c1 | inactive
Cn1nccc1-c1cc(Cl)cc(Cl)c1O | inactive
O=[N+]([O-])c1ccsc1Oc1cccc(C(F)(F)F)c1 | inactive
COc1ccc(-c2csc(-c3cccnc3)n2)cc1 | inactive
Cc1ccc(-c2nc(NS(=O)(=O)c3cccc4nonc34)sc2C)cc1Cl | inactive
Cc1ccc(S(=O)(=O)Nc2nc(-c3ccc(C)c(Cl)c3)c(C)s2)cc1 | inactive
Cc1cccc(N=NC(C(=O)C(F)(F)F)=C(O)c2cccs2)c1 | inactive
Clc1cc(Cl)cc(C=NCc2ccccc2)c1 | active
CC1C(c2ccccc2)N(C)C(c2ccccc2)CC1(O)c1ccc(F)cc1 (stereo unspecified) | inactive

---

# protocol.notes: chemical genetic growth profiling, strain panel (AID 1159580);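 also: tested at 20 µM; growth read once vehicle control cultures reached saturation at 30 °C; 1 = growth at the plate median or of vehicle wells; lower values mean less growth of the strain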
# conditions: S. cerevisiae deletion strains, growth OD, locus YPL031C, strain PHO85, active compounds read low
Out of some 5,500 compounds screened, about 2,000 (36%) were called active. Inconclusive results (about 18%) are left out. Some of the results follow.
Catalogue of normalized growth readings, one per entry.

compound | normalized growth
CC1C(c2ccccc2)N(C)C(c2ccccc2)CC1(O)c1ccc(F)cc1 (centres undefined) | 0.984
Cc1ccc(-c2nc(NS(=O)(=O)c3cccc4nonc34)sc2C)cc1Cl | 0.993
O=[N+]([O-])c1ccsc1Oc1cccc(C(F)(F)F)c1 | 0.842
Cn1nccc1-c1cc(Cl)cc(Cl)c1O | 0.704
CC1CCC(C(C)C)C(N(Cc2ccccc2)C(=O)c2ccccc2)C1 (centres undefined) | 0.981
Clc1ccc(CSc2nccn2-c2cc(Cl)ccc2Cl)cc1 | 0.866
N/C(=N/O)c1ccc(Oc2ccc(C3SCCS3)cc2)c([N+](=O)[O-])c1 | 0.998
FC(F)(F)c1cc(NC(=S)SCCSC(=S)Nc2cc(C(F)(F)F)cc(C(F)(F)F)c2)cc(C(F)(F)F)c1 | 0.963
CNC(=O)Sc1c(-c2ccc(Cl)cc2)nn(C(=O)NC)c1SC | 0.422
Cc1ccc(NC(=S)C(C#N)C(=O)N2CCOCC2)c(C)c1 (centres undefined) | 1.04
O=S(=O)(NCc1ccc(C(F)(F)F)cc1)c1cccc(C(F)(F)F)c1 | 0.95
O=C(Oc1ccc2ccccc2c1C1SCCS1)c1ccc([N+](=O)[O-])o1 | 0.917
CC(C)(C)C1=C(C#N)C(c2c(Cl)cccc2Cl)C(C#N)=C(N)O1 (centres undefined) | 0.992
Clc1cc(Cl)cc(C=NCc2ccccc2)c1 | 0.589
N#Cc1ccc(Oc2sccc2[N+](=O)[O-])cc1 | 0.876
Clc1cccc(Nc2ncc(-c3ccc4c(c3)OCCCO4)s2)c1 | 0.889
O=C(Nc1cc(C(F)(F)F)cc(C(F)(F)F)c1)C(Cl)(Cl)Cl | 0.904
O=C(Nc1ccncc1)c1cc(-c2ccccc2)oc1C(F)(F)F | 0.964
C/C(=N/NC(=S)NCC(C)(C)C)c1cc(F)cc(Cl)c1O | 0.915
Cc1ccc(S(=O)(=O)Nc2nc(-c3ccc(C)c(Cl)c3)c(C)s2)cc1 | 1.02
C[C@@H](Nc1ncnc2sc3c(c12)CCCC3)c1ccccc1 | 0.942
Nc1ccccc1C(=O)Nc1cc(C(F)(F)F)cc(C(F)(F)F)c1 | 0.991
Clc1ccc(Oc2ccnc3cc(Cl)ccc23)cc1 | 0.599
COc1ccc(Nc2nc(NC(=O)Nc3ccc(Cl)cc3)n[nH]2)cc1 | 0.749
